SUBJECT OF TEST: T1, Anti-CD28 Fab (SEQ ID NOs: 696, 697)
T1 construct: In the phage ELISA the Fab was biotinylated and captured on neutravidin coated plates
EXPERIMENT DESCRIPTION: phage binding ELISA; Fab-coated wells pre-incubated with CD28 antigen as competitor, anti-M13 HRP detection;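 also: crude clonal phage supernatants from panned colonies added to wells after blocking buffer plus CD28 treatment, bound phage measured after a brief incubation and washing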
Where no end group is shown, it is not given here.
QUANTITY: Anti-CD28 Fab signal in the presence of CD28 (phage binding ELISA)
Could you keep your reply to the number by itself?

The recorded Anti-CD28 Fab signal in the presence of CD28 (phage binding ELISA) for entry YCDGHAQEYRLKCL (cysteine pairing not given here; also: displayed fused to phage pIII protein, fusion end and linker not given here, Tested as clonal phage supernatant; not shown: fused to the pIII filament protein of the bacteriophage) [Phage-927 (Peptide-87 library clone, SEQ ID NO: 1243)] equals 0.07

The recorded Anti-CD28 Fab signal in the presence of CD28 (phage binding ELISA) for entry YCAGHLPEFMDKCL (cysteine pairing not given here; also: fused to phage pIII, Tested as clonal phage supernatant; not shown: fused to the pIII filament protein of the bacteriophage) [Phage-918 (Peptide-87 library clone, SEQ ID NO: 1234)] equals 0.06

The recorded Anti-CD28 Fab signal in the presence of CD28 (phage binding ELISA) for entry YCEGHIAEYMQKCL (cysteine pairing not given here; also: displayed fused to phage pIII protein, fusion end and linker not given here, Tested as clonal phage supernatant; not shown: fused to the pIII filament protein of the bacteriophage) [Phage-930 (Peptide-87 library clone, SEQ ID NO: 1246)] equals 0.13

The recorded Anti-CD28 Fab signal in the presence of CD28 (phage binding ELISA) for entry YCAGHAAEYMTKCL (cysteine pairing not given here; also: displayed fused to phage pIII protein, fusion end and linker not given here, Tested as clonal phage supernatant; not shown: fused to the pIII filament protein of the bacteriophage) [Phage-925 (Peptide-87 library clone, SEQ ID NO: 1241)] equals 0.07
